src = patent US5608095A

Kindly supply the reported concentration at 96 h values for the records listed here.
# experimental details: HPLC quantitation of compound and metabolite concentration in rat serum and liver
# Format: in vivo, male Sprague-Dawley rats
# condition description: po; rat serum, diet 0.3%, 4 days; read-out: Serum Parent = parent compound concentration
Give bare numbers, in ng/mL.

molecule="COc1ccc([Si](C)(C)COc2ccc(O)c(C(C)(C)C)c2)cc1 [MDL 106,834]" units_of_measure=ng/mL recorded_value=1800
molecule="CC(C)(C)c1cc(OC[Si](C)(C)c2ccccc2)ccc1O [MDL 103,491]" units_of_measure=ng/mL recorded_value=3000
molecule="CN(C)c1ccc([Si](C)(C)COc2cc(C(C)(C)C)c(O)c(C(C)(C)C)c2)cc1 [MDL 104,556]" units_of_measure=ng/mL recorded_value=16300
molecule="CC(C)(C)c1cc(OC[Si](C)(c2ccccc2)c2ccccc2)cc(C(C)(C)C)c1O [MDL 104,599]" units_of_measure=ng/mL recorded_value=28300
molecule="CC(C)(C)c1cc(OC[Si](C)(C)c2ccc(C(F)(F)F)cc2)cc(C(C)(C)C)c1O [MDL 105,975]" units_of_measure=ng/mL recorded_value=35800

State recorded concentration at 96 h for all listed molecules.
1. CC(=O)Oc1c(C(C)(C)C)cc(OC[Si](C)(C)c2ccccc2)cc1C(C)(C)C [MDL 103,377]
2. CC(C)(C)c1cc(SC[Si](C)(C)c2ccccc2)ccc1O [MDL 104,571]
3. CC(C)(C)c1cc(OC[Si](C)(C)c2ccccc2)c(C(C)(C)C)cc1O [MDL 104,962]
4. CC(C)(C)c1cc(OC[Si](C)(C)c2cccc(C(F)(F)F)c2)cc(C(C)(C)C)c1O [MDL 105,726]

7720
1200
16400
17000
